What inhibition was measured for each of the following?
Measurement target: UniProtKB P21731
Assay comment: Binding affinity for thromboxane A2 receptor by measuring its ability to displace [3H]U-46619 from guinea pig platelets at 0.1 uM
Stated conditions: Cavia porcellus, target entry is the homologue from another species

Here are 2 compounds together with their reported answers.
| Compound | Measurement |
| --- | --- |
| O=C(NCCSC1c2ccccc2COc2ccc(C(=O)O)cc21)Nc1ccccc1 (centres undefined) | 67% |
| O=C(O)c1ccc2c(c1)C(SCCNC(=O)c1ccccc1O)c1ccccc1CO2 (centres undefined) | 90% |

State the recorded inhibition for every item in the following list.
1. O=C(O)c1ccc2c(c1)C(SCCNS(=O)(=O)c1ccccc1)c1ccccc1CC2 (centres undefined)
2. CN(CCSC1c2ccccc2COc2ccc(C(=O)O)cc21)S(=O)(=O)c1ccccc1 (centres undefined)

1: 71%; 2: 73%

---

Measurement target: Thromboxane A2 receptor (Homo sapiens) (UniProt P21731)
Sequence (whole entry): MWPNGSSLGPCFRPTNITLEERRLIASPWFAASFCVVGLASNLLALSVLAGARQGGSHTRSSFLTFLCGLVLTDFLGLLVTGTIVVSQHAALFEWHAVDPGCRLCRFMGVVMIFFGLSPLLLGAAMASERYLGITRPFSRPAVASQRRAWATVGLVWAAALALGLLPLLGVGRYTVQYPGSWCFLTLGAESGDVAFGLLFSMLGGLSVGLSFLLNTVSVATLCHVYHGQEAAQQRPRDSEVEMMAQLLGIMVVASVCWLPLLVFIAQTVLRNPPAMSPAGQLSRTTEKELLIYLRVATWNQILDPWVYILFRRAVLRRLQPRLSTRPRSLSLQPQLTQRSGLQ
Assay comment: Inhibitory effect against binding thromboxane A2 receptor on guinea pig platelets using [3H]U-46619 as radioligand at 1 uM concentration
Stated conditions: Cavia porcellus, target entry is the homologue from another species
Result type: inhibition (%)
One number for each entry, in %.

| Molecule | Measurement |
| --- | --- |
| COc1cccc(OC)c1C(=O)NCCSC1c2ccccc2COc2ccc(C(=O)O)cc21 (configuration not stated) | 72 |
| O=C(O)c1ccc2c(c1)C(SCCNS(=O)(=O)c1ccccc1)c1cc(Br)ccc1CO2 (configuration not stated) | 94 |
| O=C(O)c1ccc2c(c1)C(SCCNS(=O)(=O)c1ccc(C(F)(F)F)cc1)c1ccccc1CO2 (configuration not stated) | 92 |
| COc1cc(C(=O)NCCSC2c3ccccc3COc3ccc(C(=O)O)cc32)cc(OC)c1OC (configuration not stated) | 87 |
| COc1ccc(S(=O)(=O)NCCSC2c3ccccc3COc3ccc(C(=O)O)cc32)cc1OC (configuration not stated) | 91 |
| O=C(O)c1ccc2c(c1)C(SCCNC(=O)c1ccccc1O)c1ccccc1CO2 (configuration not stated) | 99 |

Now for another entry.
What value of measured inhibition is listed for O=C(O)c1ccc2c(c1)C(SCCNS(=O)(=O)c1ccccc1[N+](=O)[O-])c1ccccc1CO2 (configuration not stated) ?
99
